# measured-target: hsst1 (Homo sapiens, UniProt P30872)
# Construct: expressed in transfected cells
# Sequence (P30872 whole entry): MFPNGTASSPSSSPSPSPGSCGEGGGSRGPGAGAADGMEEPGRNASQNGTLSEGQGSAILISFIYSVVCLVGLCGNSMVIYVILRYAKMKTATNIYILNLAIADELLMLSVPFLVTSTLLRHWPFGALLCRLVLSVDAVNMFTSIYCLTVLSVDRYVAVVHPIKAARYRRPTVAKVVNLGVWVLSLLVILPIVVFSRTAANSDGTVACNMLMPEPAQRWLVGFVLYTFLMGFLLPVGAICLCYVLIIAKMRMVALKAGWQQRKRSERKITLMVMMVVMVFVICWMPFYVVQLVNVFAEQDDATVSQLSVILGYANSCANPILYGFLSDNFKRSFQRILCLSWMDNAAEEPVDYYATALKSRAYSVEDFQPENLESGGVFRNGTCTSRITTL
# experimental-protocol: Somatostatin receptor radioligand binding assay, hsst1
# applied-conditions: CHO-K1 membranes, [125I-Tyr11]SS-14; read-out: hsst1 Ki
pKi: −log10 of the molar value. Bridge positions count the residues as written; N and C are the ends. Square brackets hold non-standard residues; d marks the D form. Peptide text beside a SMILES is read from it. * marks the point of attachment. X1 = CCCN1C[C@H](CSCC(=O)*)C[C@@H]2c3cccc4[nH]cc(c34)C[C@H]21; Abu = CC[C@H](N)C(=O)O
Measured pKi of individual entries

- compound: "CCCN1C[C@H](CSCC(=O)N[C@H](Cc2ccccc2)C(=O)NCCOCCOCC(=O)N[C@H](Cc2ccccc2)C(=O)N[C@H]2CSSC[C@@H](C(=O)N[C@H](C(N)=O)[C@@H](C)O)NC(=O)[C@H](C(C)C)NC(=O)[C@H](CCCCN)NC(=O)[C@@H](Cc3c[nH]c4ccccc34)NC(=O)[C@H](Cc3ccc(O)c(I)c3)NC2=O)C[C@@H]2c3cccc4[nH]cc(c34)C[C@H]21"
  pKi: 6.00
- compound: "CC[C@@H]1NC(=O)[C@H](CCCCN)NC(=O)[C@@H](Cc2c[nH]c3ccccc23)NC(=O)[C@H](Cc2ccc(O)cc2)NC(=O)[C@@H](NC(=O)[C@@H](Cc2ccccc2)NC(=O)COCCOCCNC(=O)COCCOCCNC(=O)CSC[C@@H]2C[C@@H]3c4cccc5[nH]cc(c45)C[C@H]3N(C)C2)CSSC[C@@H](C(=O)N[C@H](C(N)=O)[C@@H](C)O)NC1=O"
  pKi: 6.00
- compound: "CC[C@@H]1NC(=O)[C@H](CCCCN)NC(=O)[C@@H](Cc2c[nH]c3ccccc23)NC(=O)[C@H](Cc2ccc(O)cc2)NC(=O)[C@@H](NC(=O)[C@@H](Cc2ccccc2)NC(=O)CSC[C@@H]2C[C@@H]3c4cccc5[nH]cc(c45)C[C@H]3N(C)C2)CSSC[C@@H](C(=O)N[C@H](C(N)=O)[C@@H](C)O)NC1=O"
  pKi: 6.16
- compound: "CCCN1C[C@H](CSCC(=O)NCCCC[C@H](NC(C)=O)C(=O)N[C@H](Cc2ccc(O)cc2)C(=O)N[C@H](Cc2ccc(O)cc2)C(=O)N[C@H]2CSSC[C@@H](C(=O)N[C@H](C(N)=O)[C@@H](C)O)NC(=O)[C@H](CC)NC(=O)[C@H](CCCCN)NC(=O)[C@@H](Cc3c[nH]c4ccccc34)NC(=O)[C@H](Cc3ccc(O)cc3)NC2=O)C[C@@H]2c3cccc4[nH]cc(c34)C[C@H]21 [Example 11] (Ac-K(X1)[dY][dY]CY[dW]K[Abu]CT-NH2; disulfide 4-9)"
  pKi: 6.36
- compound: "CCNC(=O)N(CCCN(C)CC(=O)N[C@H](Cc1ccccc1)C(=O)N[C@H]1CSSC[C@@H](C(=O)N[C@H](C(N)=O)[C@@H](C)O)NC(=O)[C@H](CC)NC(=O)[C@H](CCCCN)NC(=O)[C@@H](Cc2c[nH]c3ccccc23)NC(=O)[C@H](Cc2ccc(O)cc2)NC1=O)C(=O)[C@H]1CN[C@@H]2Cc3c[nH]c4cccc(c34)[C@H]2C1"
  pKi: 6.46
- compound: "CCCN1C[C@H](CSCC(=O)N[C@H](Cc2ccccc2)C(=O)N[C@H]2CSSC[C@@H](C(=O)N[C@H](C(N)=O)[C@@H](C)O)NC(=O)[C@H](C(C)C)NC(=O)[C@H](CCCCN)NC(=O)[C@@H](Cc3c[nH]c4ccccc34)NC(=O)[C@H](Cc3ccc(O)c(I)c3)NC2=O)C[C@@H]2c3cccc4[nH]cc(c34)C[C@H]21"
  pKi: 6.14

====

Quick reference for Ki among some compounds
# measured-target: hsst3 (Homo sapiens)
# Construct: expressed in transfected cells
# Sequence (P32745 whole entry): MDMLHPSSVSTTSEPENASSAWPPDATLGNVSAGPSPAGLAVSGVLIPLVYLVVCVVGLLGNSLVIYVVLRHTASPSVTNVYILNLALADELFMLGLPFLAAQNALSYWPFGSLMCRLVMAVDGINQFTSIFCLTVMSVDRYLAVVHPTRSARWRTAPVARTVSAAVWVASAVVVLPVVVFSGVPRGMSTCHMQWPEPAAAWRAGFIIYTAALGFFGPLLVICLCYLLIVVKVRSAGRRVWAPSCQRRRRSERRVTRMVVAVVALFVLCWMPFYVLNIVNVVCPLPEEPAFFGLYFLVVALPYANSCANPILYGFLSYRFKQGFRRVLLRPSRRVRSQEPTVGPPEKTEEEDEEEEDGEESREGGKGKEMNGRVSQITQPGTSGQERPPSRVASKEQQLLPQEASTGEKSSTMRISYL
# experimental-protocol: Somatostatin receptor radioligand binding assay, hsst3
# applied-conditions: CHO-K1 membranes, [125I-Tyr11]SS-14; read-out: hsst3 Ki
# Description: Specificity and selectivity of the somatostatin analogues used to synthesize the somatostatin-dopamine chimers were determined by a radioligand binding assay on CHO-K1 cells stably transfected with each of the SSTR subtypes, as follows. […] Using the discussed assays, the inhibition constants (Ki) for the five human somatostatin receptors (hSSTR1-hSSTR5) and the dopamine-2 receptor (hUTII and hDA2) were measured for the exemplified somatostatin-dopamine conjugates, as follows: […]
Bridge positions count the residues as written; N and C are the ends. Square brackets hold non-standard residues; d marks the D form. Peptide text beside a SMILES is read from it. * marks the point of attachment. X1 = CCCN1C[C@H](CSCC(=O)*)C[C@@H]2c3cccc4[nH]cc(c34)C[C@H]21; Dopa = N[C@@H](Cc1ccc(O)c(O)c1)C(=O)O; Abu = CC[C@H](N)C(=O)O
property-measured: Ki (nM)

- compound: "CCCN1C[C@H](CSCC(=O)NCCCC[C@H](NC(C)=O)C(=O)N[C@H](Cc2ccc(O)cc2)C(=O)N[C@H](Cc2ccc(O)cc2)C(=O)N[C@H]2CSSC[C@@H](C(=O)N[C@H](C(N)=O)[C@@H](C)O)NC(=O)[C@H](CC)NC(=O)[C@H](CCCCN)NC(=O)[C@@H](Cc3c[nH]c4ccccc34)NC(=O)[C@H](Cc3ccc(O)cc3)NC2=O)C[C@@H]2c3cccc4[nH]cc(c34)C[C@H]21 [Example 11] (Ac-K(X1)[dY][dY]CY[dW]K[Abu]CT-NH2; disulfide 4-9)"
  property-measured: "Ki"
  observed-result: 162
- compound: "CC[C@@H]1NC(=O)[C@H](CCCCN)NC(=O)[C@@H](Cc2c[nH]c3ccccc23)NC(=O)[C@H](Cc2ccc(O)cc2)NC(=O)[C@@H](NC(=O)[C@@H](Cc2ccccc2)NC(=O)[C@@H](N)Cc2ccc(O)c(O)c2)CSSC[C@@H](C(=O)N[C@H](C(N)=O)[C@@H](C)O)NC1=O [Example 19]"
  property-measured: "Ki"
  observed-result: 146
- compound: "CCCN1C[C@H](CSCC(=O)NCCCC[C@@H](NC(=O)CSC[C@@H]2C[C@@H]3c4cccc5[nH]cc(c45)C[C@H]3N(CCC)C2)C(=O)N[C@H](Cc2ccccc2)C(=O)N[C@H]2CSSC[C@@H](C(=O)N[C@H](C(N)=O)[C@@H](C)O)NC(=O)[C@H]([C@@H](C)O)NC(=O)[C@H](CCCCN)NC(=O)[C@@H](Cc3c[nH]c4ccccc34)NC(=O)[C@H](Cc3ccc(O)c(I)c3)NC2=O)C[C@@H]2c3cccc4[nH]cc(c34)C[C@H]21 [Example 13]"
  property-measured: "Ki"
  observed-result: 196
- compound: "CC[C@@H]1NC(=O)[C@H](CCCCN)NC(=O)[C@@H](Cc2c[nH]c3ccccc23)NC(=O)[C@H](Cc2ccc(O)cc2)NC(=O)[C@@H](NC(=O)[C@@H](Cc2ccccc2)NC(=O)[C@H](CCCCNC(=O)[C@@H](N)Cc2ccc(O)c(O)c2)NC(=O)[C@@H](N)Cc2ccc(O)c(O)c2)CSSC[C@@H](C(=O)N[C@H](C(N)=O)[C@@H](C)O)NC1=O [Example 18] (H-[Dopa]K(Dopa)[dF]CY[dW]K[Abu]CT-NH2; disulfide 4-9)"
  property-measured: "Ki"
  observed-result: 167
- compound: "CCCN1C[C@H](CSCC(=O)NCCOCCOCC(=O)N[C@H](Cc2ccccc2)C(=O)N[C@H]2CSSC[C@@H](C(=O)N[C@H](C(N)=O)[C@@H](C)O)NC(=O)[C@H](CC)NC(=O)[C@H](CCCCN)NC(=O)[C@@H](Cc3c[nH]c4ccccc34)NC(=O)[C@H](Cc3ccc(O)cc3)NC2=O)C[C@@H]2c3cccc4[nH]cc(c34)C[C@H]21 [Example 8]"
  property-measured: "Ki"
  observed-result: 126
- compound: "CC[C@@H]1NC(=O)[C@H](CCCCN)NC(=O)[C@@H](Cc2c[nH]c3ccccc23)NC(=O)[C@H](Cc2ccc(O)cc2)NC(=O)[C@@H](NC(=O)[C@@H](Cc2ccccc2)NC(=O)COCCOCCNC(=O)COCCOCCNC(=O)CSC[C@@H]2C[C@@H]3c4cccc5[nH]cc(c45)C[C@H]3N(C)C2)CSSC[C@@H](C(=O)N[C@H](C(N)=O)[C@@H](C)O)NC1=O [Example 42]"
  property-measured: "Ki"
  observed-result: 120

====

Recorded Ki by entry
# measured-target: hsst3 (Homo sapiens)
# Construct: expressed in transfected cells
# experimental-protocol: Somatostatin receptor radioligand binding assay, hsst3
# Method: Specificity and selectivity of the somatostatin analogues used to synthesize the somatostatin-dopamine chimers were determined by a radioligand binding assay on CHO-K1 cells stably transfected with each of the SSTR subtypes, as follows. […] Using the discussed assays, the inhibition constants (Ki) for the five human somatostatin receptors (hSSTR1-hSSTR5) and the dopamine-2 receptor (hUTII and hDA2) were measured for the exemplified somatostatin-dopamine conjugates, as follows: […]
Bridge positions count the residues as written; N and C are the ends. Square brackets hold non-standard residues; d marks the D form. Peptide text beside a SMILES is read from it. * marks the point of attachment. X2 = CN1C[C@H](CSCC(=O)*)C[C@@H]2c3cccc4[nH]cc(c34)C[C@H]21; Abu = CC[C@H](N)C(=O)O
property-measured: Ki (nM)

- compound: "CC[C@@H]1NC(=O)[C@H](CCCCN)NC(=O)[C@@H](Cc2c[nH]c3ccccc23)NC(=O)[C@H](Cc2ccc(O)cc2)NC(=O)[C@@H](NC(=O)[C@@H](Cc2ccccc2)NC(=O)CN(C)C(=O)N[C@H]2C[C@@H]3c4cccc5[nH]cc(c45)C[C@H]3N(C)C2)CSSC[C@@H](C(=O)N[C@H](C(N)=O)[C@@H](C)O)NC1=O [Example 27]"
  units-label: "nM"
  observed-result: 140
- compound: "CCCN1C[C@H](CSCC(=O)NCCCC[C@@H](NC(=O)CSC[C@@H]2C[C@@H]3c4cccc5[nH]cc(c45)C[C@H]3N(CCC)C2)C(=O)N[C@H]2CSSC[C@@H](C(=O)N[C@H](C(N)=O)[C@@H](C)O)NC(=O)[C@H](CC)NC(=O)[C@H](CCCCN)NC(=O)[C@@H](Cc3c[nH]c4ccccc34)NC(=O)[C@H](Cc3ccc(O)cc3)NC2=O)C[C@@H]2c3cccc4[nH]cc(c34)C[C@H]21 [Example 1]"
  units-label: "nM"
  observed-result: 160
- compound: "CC[C@@H]1NC(=O)[C@H](CCCCN)NC(=O)[C@@H](Cc2c[nH]c3ccccc23)NC(=O)[C@H](Cc2ccc(O)cc2)NC(=O)[C@@H](NC(=O)[C@@H](Cc2ccc(O)cc2)NC(=O)[C@@H](Cc2ccc(O)cc2)NC(=O)[C@H](CCCCN)NC(=O)CSC[C@@H]2C[C@@H]3c4cccc5[nH]cc(c45)C[C@H]3N(C)C2)CSSC[C@@H](C(=O)N[C@H](C(N)=O)[C@@H](C)O)NC1=O [Example 33] (X2-K[dY][dY]CY[dW]K[Abu]CT-NH2; disulfide 4-9)"
  units-label: "nM"
  observed-result: 65.1
